Origin of the recorded values: patent US7119095B2

IC50 listing for selected compounds.
- target_system: T. gondii DHFR (Toxoplasma gondii, UniProt Q07422)
- Sequence (Q07422 1-610): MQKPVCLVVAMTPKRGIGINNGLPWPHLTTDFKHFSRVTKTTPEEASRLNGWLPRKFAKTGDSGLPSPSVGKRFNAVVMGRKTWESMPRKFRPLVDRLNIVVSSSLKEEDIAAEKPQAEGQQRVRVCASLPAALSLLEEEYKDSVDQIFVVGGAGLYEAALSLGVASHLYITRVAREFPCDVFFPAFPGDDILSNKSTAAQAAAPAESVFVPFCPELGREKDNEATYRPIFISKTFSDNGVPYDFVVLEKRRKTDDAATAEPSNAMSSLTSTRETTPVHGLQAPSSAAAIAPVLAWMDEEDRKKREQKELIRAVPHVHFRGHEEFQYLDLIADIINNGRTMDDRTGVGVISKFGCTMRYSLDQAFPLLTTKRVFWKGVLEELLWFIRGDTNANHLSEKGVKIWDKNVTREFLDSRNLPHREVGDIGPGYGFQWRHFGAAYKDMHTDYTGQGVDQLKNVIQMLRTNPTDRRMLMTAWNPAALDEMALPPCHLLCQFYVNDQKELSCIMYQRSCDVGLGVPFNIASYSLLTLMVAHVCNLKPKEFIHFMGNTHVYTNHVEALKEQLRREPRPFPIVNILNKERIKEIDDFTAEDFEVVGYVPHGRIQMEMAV
- Type: biochemical
- condition_description: compounds 3a-k
Numbers only; they are read as µM.

Solved cases below.
CCCCCOc1ccc(OC)c(Cc2cnc(N)nc2N)c1
6.5
COc1ccc(OCCCCCCCCC(=O)O)cc1Cc1cnc(N)nc1N
0.43
COc1ccc(OCCCCCC(=O)O)cc1Cc1cnc(N)nc1N
0.48

Tell me the measured IC50 of CCCCCCCOc1ccc(OC)c(Cc2cnc(N)nc2N)c1 , please.
5

Could you tell me which IC50 is on file for COc1ccc(OCCCCCCCC(=O)O)cc1Cc1cnc(N)nc1N ?
0.36
